Every entry's value here was drawn from PubChem BioAssay (NCI).

- System: RPMI-8226 leukemia
- experiment: NCI-60 one-dose screen, 48 h (100 = growth as untreated, 0 = no growth, -100 = all killed)
- recorded.conditions: 10 µM unless noted
Compounds without any hit were thinned out: in the full panel of roughly 83,000, 20% have a hit. Activity calls are given as the source filed them. How the source made its calls: active means growth percent below 10; inactive means the rest.
Overview of reported growth across a group of compounds:

compound	growth
CC1SC(c2ccccc2O)N(NC(=O)CCC(=O)c2nc3ncccc3[nH]2)C1=O (stereo not drawn)	93.1% (inactive)
COc1cc(/C=C2\C(=O)N(CCCOc3cc(O)c4c(=O)cc(-c5ccccc5)oc4c3)c3ccccc32)cc(OC)c1O	86.7% (inactive)
Cc1ccc(S(=O)(=O)N2CCCN(c3nc(-c4ccccc4)nc4nc(-c5ccccc5)oc34)CC2)cc1	89.6% (inactive)
COC1C(O)CC(OC2CC(OC3CC(O[C@@H]4C(=O)c5c(cc6cc(OC7CC(OC8CC(O)C(O)C(C)O8)C(O)C(C)O7)c(C)c(O)c6c5O)CC4[C@H](OC)C(=O)O)OC(C)C3O)OC(C)C2O)OC1C (stereo partly drawn)	19% (inactive)
O=C(Cn1nc(-c2cccc3ccccc23)ccc1=O)NCc1cccc(Cl)c1	23.7% [50 µM] (inactive)
N#Cc1c(-c2ccccc2)nc2c(c(-c3ccc(Cl)cc3)nn2-c2ccccc2)c1-c1ccc([N+](=O)[O-])cc1	101% (inactive)
COc1ccc(-c2cn(Cc3cc4ccccc4s3)nn2)cc1OCCN1CCCCC1	28.5% (inactive)
COc1ccc(Oc2ccc(/C=C/C(=O)c3ccc(OC)c(OC)c3)cc2)cc1	54.7% (inactive)

====

- Tested on: LOX IMVI melanoma
- experiment: NCI-60 one-dose screen, 48 h (100 = growth as untreated, 0 = no growth, -100 = all killed)
- recorded.conditions: 10 µM unless noted
About 83,000 compounds went through this panel and 20% of them were active in at least one assay; those are over-represented in the sample as a whole. Activity calls are given as the source filed them. Rule for the calls: active = growth percent below 10; inactive = the rest.

compound	growth
Cc1ccc2c(c1)sc1nc(-c3c[nH]c4ccccc34)c(Nc3ccccc3)n12	96.3% (inactive)
Cc1ccc(S(=O)(=O)OCC#CCOS(=O)(=O)c2ccc(C)cc2)cc1	-35.8% (active)
COC(=O)c1c(C)nc(C)c2c1C(=O)C=C(NCc1ccccc1)C2=O	61.7% (inactive)
Cc1ccc2c(c1)nc(C)n2-c1ncnc2c1CC(C)c1cc(O)ccc1N2C (stereo unspecified)	43% (inactive)
Cc1cc2oc(/C=C/c3ccccc3)cc(=O)c2c(C)c1Cl	109% (inactive)
Cc1ccc(-c2csc(NC(=O)CSc3nc(N)cc(N)n3)n2)cc1	60.2% (inactive)
C[C@H]1[C@H](C)CC[C@]2(C(=O)NCCNCCN)CC[C@]3(C)C(=CC[C@@H]4[C@@]5(C)CCC(=O)C(C)(C)[C@@H]5CC[C@]43C)[C@H]12	-76.7% (active)
N#Cc1ccc(/C=C/c2cn(-c3ccccc3)nc2-c2cccc([N+](=O)[O-])c2)cc1	77.4% (inactive)
COc1cc(Cc2cc(OC)c(O)c(OC)c2)cc(OC)c1O	80.7% (inactive)
Cc1ccc(OCCOCCOCCOCCOCCOc2ccc(C)n(O)c2=S)c(=S)n1O	3.58% (active)
Cc1cn(C)cn1	94.6% (inactive)

====

- Tested on: OVCAR-3 ovarian
- experiment: NCI-60 one-dose screen, 48 h (100 = growth as untreated, 0 = no growth, -100 = all killed)
- recorded.conditions: 10 µM unless noted
- Method: Growth inhibition of the OVCAR-3 human tumor cell line is measured as a screen for anti-cancer activity. Cells are grown in 96 well plates and exposed to the test compound for 48 hours. Compounds are tested at a single concentration, which is 10^-5 M for most compounds. The reported endpoint is percent growth (GI% or GIPRCNT), where numbers from 0 - 100% represent growth inhibition, and numbers from -100% - 0 represent cell death. For example, a value of 40 represents 60% growth inhibition. […]
Compounds without any hit were thinned out: in the full panel of roughly 83,000, 20% have a hit. Calls of active or inactive are those of the source. The calls were made as follows: active = growth percent below 10; inactive = the rest.
assay.metric: growth

compound	assay.metric	reading
O=CN1N=C(c2cccc(Nc3ccnc4cc(Cl)ccc34)c2)CC1c1ccc(Cl)cc1 (stereo not given)	growth	-17% (active)
O=C(NCCN1CCOCC1)OCc1ccc2c(Cl)cc(Cl)c(O)c2n1	growth	62.1% (inactive)
O=C(NCCCCO)c1cncnc1Nc1ccc2c(ccn2Cc2cccc(F)c2)c1	growth	98.5% (inactive)
CCOc1ccc(NC(=O)Nc2ccc(OCC)cc2)cc1	growth	105% (inactive)
Cc1ccc(Cc2cnc(NC(=O)/C=C/c3ccc(C)o3)s2)cc1	growth	-8.25% (active)
CS(=O)/C(C#N)=C\C=C\c1cccc(Cl)c1 (stereo not given)	growth	10.6% (inactive)
COc1cc(O)c2c(=O)c3c(CC=C(C)C)cc(OC)c(O)c3oc2c1	growth	1.93% (active)
CN(C)c1ccc(/C=C2\C=C(c3nc4ccccc4s3)OC2=O)cc1	growth	102% (inactive)
O=C(/C=C/c1ccccc1)c1ccc(-n2cc(CN3CCN(c4cc5c(cc4F)c(=O)c(C(=O)O)cn5C4CC4)CC3)nn2)cc1	growth	91.5% (inactive)
O=C1Nc2ccccc2/C1=N/N1C(=O)CN(CCCl)C1=O	growth	113% (inactive)
